# Tested on: 2Sp-muMax20 (muMax20 with two 2,6-bis(methyl)pyridine Cys staples)
# assay protocol: PBM 8-mer E-score (E-score (rank enrichment, -0.5 to 0.5)); higher = stronger preferential binding
Whole data set: some 33,000 sequences, median “E-score (rank enrichment, -0.5 to 0.5)” near -0.0043, cut for the highest 2% near 0.24. What follows is part of a selection rich in the highest values, with near analogues and random picks from the rest.
Answer False if PBM 8-mer E-score is under 0.05, and True if it is 0.05 or more.

INSERT INTO results (ordered_residues, system_tested, assigned_class) VALUES
  ('CATTTTAA', '2Sp-muMax20 (muMax20 with two 2,6-bis(methyl)pyridine Cys staples)', 'True'),
  ('AGTTCACA', '2Sp-muMax20 (muMax20 with two 2,6-bis(methyl)pyridine Cys staples)', 'False'),
  ('ATGAGGGA', '2Sp-muMax20 (muMax20 with two 2,6-bis(methyl)pyridine Cys staples)', 'True'),
  ('GGGTAAAA', '2Sp-muMax20 (muMax20 with two 2,6-bis(methyl)pyridine Cys staples)', 'True'),
  ('ACATGGGG', '2Sp-muMax20 (muMax20 with two 2,6-bis(methyl)pyridine Cys staples)', 'True'),
  ('ACCCACCA', '2Sp-muMax20 (muMax20 with two 2,6-bis(methyl)pyridine Cys staples)', 'True'),
  ('ATGTAGAA', '2Sp-muMax20 (muMax20 with two 2,6-bis(methyl)pyridine Cys staples)', 'True'),
  ('GCTGAGAA', '2Sp-muMax20 (muMax20 with two 2,6-bis(methyl)pyridine Cys staples)', 'False'),
  ('AATGCGTA', '2Sp-muMax20 (muMax20 with two 2,6-bis(methyl)pyridine Cys staples)', 'True'),
  ('ACCCCATG', '2Sp-muMax20 (muMax20 with two 2,6-bis(methyl)pyridine Cys staples)', 'True'),
  ('GAGCAGTA', '2Sp-muMax20 (muMax20 with two 2,6-bis(methyl)pyridine Cys staples)', 'True'),
  ('GCGCAAAC', '2Sp-muMax20 (muMax20 with two 2,6-bis(methyl)pyridine Cys staples)', 'True'),
  ('CACGTGAA', '2Sp-muMax20 (muMax20 with two 2,6-bis(methyl)pyridine Cys staples)', 'True'),
  ('CCTATATC', '2Sp-muMax20 (muMax20 with two 2,6-bis(methyl)pyridine Cys staples)', 'False'),
  ('GTGTATAA', '2Sp-muMax20 (muMax20 with two 2,6-bis(methyl)pyridine Cys staples)', 'True'),
  ('AACCCATG', '2Sp-muMax20 (muMax20 with two 2,6-bis(methyl)pyridine Cys staples)', 'True'),
  ('AATCTAAA', '2Sp-muMax20 (muMax20 with two 2,6-bis(methyl)pyridine Cys staples)', 'True'),
  ('GCTTAGCA', '2Sp-muMax20 (muMax20 with two 2,6-bis(methyl)pyridine Cys staples)', 'False'),
  ('ATGGTATG', '2Sp-muMax20 (muMax20 with two 2,6-bis(methyl)pyridine Cys staples)', 'False'),
  ('AGTATATC', '2Sp-muMax20 (muMax20 with two 2,6-bis(methyl)pyridine Cys staples)', 'False'),
  ('ATCCTGTG', '2Sp-muMax20 (muMax20 with two 2,6-bis(methyl)pyridine Cys staples)', 'False'),
  ('CTATGGGC', '2Sp-muMax20 (muMax20 with two 2,6-bis(methyl)pyridine Cys staples)', 'False'),
  ('GCCCGGGA', '2Sp-muMax20 (muMax20 with two 2,6-bis(methyl)pyridine Cys staples)', 'False'),
  ('AGCCTCTG', '2Sp-muMax20 (muMax20 with two 2,6-bis(methyl)pyridine Cys staples)', 'False'),
  ('ATGTATAA', '2Sp-muMax20 (muMax20 with two 2,6-bis(methyl)pyridine Cys staples)', 'True'),
  ('CGGGGACA', '2Sp-muMax20 (muMax20 with two 2,6-bis(methyl)pyridine Cys staples)', 'False'),
  ('AGTATATA', '2Sp-muMax20 (muMax20 with two 2,6-bis(methyl)pyridine Cys staples)', 'True'),
  ('AACGTCTG', '2Sp-muMax20 (muMax20 with two 2,6-bis(methyl)pyridine Cys staples)', 'False'),
  ('ATATATAA', '2Sp-muMax20 (muMax20 with two 2,6-bis(methyl)pyridine Cys staples)', 'True'),
  ('ATGTAGAG', '2Sp-muMax20 (muMax20 with two 2,6-bis(methyl)pyridine Cys staples)', 'True'),
  ('TGTTCCAA', '2Sp-muMax20 (muMax20 with two 2,6-bis(methyl)pyridine Cys staples)', 'False'),
  ('CATGCTGA', '2Sp-muMax20 (muMax20 with two 2,6-bis(methyl)pyridine Cys staples)', 'True'),
  ('ATTGAAGA', '2Sp-muMax20 (muMax20 with two 2,6-bis(methyl)pyridine Cys staples)', 'True'),
  ('ATGAGGGG', '2Sp-muMax20 (muMax20 with two 2,6-bis(methyl)pyridine Cys staples)', 'True'),
  ('CACGTGAC', '2Sp-muMax20 (muMax20 with two 2,6-bis(methyl)pyridine Cys staples)', 'True'),
  ('ATTATATG', '2Sp-muMax20 (muMax20 with two 2,6-bis(methyl)pyridine Cys staples)', 'True'),
  ('ACTCGCTG', '2Sp-muMax20 (muMax20 with two 2,6-bis(methyl)pyridine Cys staples)', 'False'),
  ('TAAACGAA', '2Sp-muMax20 (muMax20 with two 2,6-bis(methyl)pyridine Cys staples)', 'True'),
  ('CTATAGTC', '2Sp-muMax20 (muMax20 with two 2,6-bis(methyl)pyridine Cys staples)', 'True'),
  ('ATATGGGG', '2Sp-muMax20 (muMax20 with two 2,6-bis(methyl)pyridine Cys staples)', 'True'),
  ('CATGCTTA', '2Sp-muMax20 (muMax20 with two 2,6-bis(methyl)pyridine Cys staples)', 'True'),
  ('ATATGGGC', '2Sp-muMax20 (muMax20 with two 2,6-bis(methyl)pyridine Cys staples)', 'True'),
  ('CCATGGGG', '2Sp-muMax20 (muMax20 with two 2,6-bis(methyl)pyridine Cys staples)', 'False'),
  ('ATTGAAGG', '2Sp-muMax20 (muMax20 with two 2,6-bis(methyl)pyridine Cys staples)', 'False'),
  ('CTGTATAA', '2Sp-muMax20 (muMax20 with two 2,6-bis(methyl)pyridine Cys staples)', 'True'),
  ('ACGCGAAT', '2Sp-muMax20 (muMax20 with two 2,6-bis(methyl)pyridine Cys staples)', 'True'),
  ('AGTAGGGA', '2Sp-muMax20 (muMax20 with two 2,6-bis(methyl)pyridine Cys staples)', 'False'),
  ('CGATATAA', '2Sp-muMax20 (muMax20 with two 2,6-bis(methyl)pyridine Cys staples)', 'True'),
  ('AACGCCTT', '2Sp-muMax20 (muMax20 with two 2,6-bis(methyl)pyridine Cys staples)', 'False'),
  ('CTGCCCAA', '2Sp-muMax20 (muMax20 with two 2,6-bis(methyl)pyridine Cys staples)', 'False'),
  ('GCCCACCC', '2Sp-muMax20 (muMax20 with two 2,6-bis(methyl)pyridine Cys staples)', 'True'),
  ('TCACCCAA', '2Sp-muMax20 (muMax20 with two 2,6-bis(methyl)pyridine Cys staples)', 'True'),
  ('AACTTGTA', '2Sp-muMax20 (muMax20 with two 2,6-bis(methyl)pyridine Cys staples)', 'False'),
  ('CGATATAG', '2Sp-muMax20 (muMax20 with two 2,6-bis(methyl)pyridine Cys staples)', 'True'),
  ('CCATTTAC', '2Sp-muMax20 (muMax20 with two 2,6-bis(methyl)pyridine Cys staples)', 'True'),
  ('AAAAATCG', '2Sp-muMax20 (muMax20 with two 2,6-bis(methyl)pyridine Cys staples)', 'False'),
  ('ATGATGTA', '2Sp-muMax20 (muMax20 with two 2,6-bis(methyl)pyridine Cys staples)', 'True'),
  ('GGTATCTA', '2Sp-muMax20 (muMax20 with two 2,6-bis(methyl)pyridine Cys staples)', 'False'),
  ('AGTTTAAA', '2Sp-muMax20 (muMax20 with two 2,6-bis(methyl)pyridine Cys staples)', 'True'),
  ('AGTAGGGC', '2Sp-muMax20 (muMax20 with two 2,6-bis(methyl)pyridine Cys staples)', 'True'),
  ('ACTATCTC', '2Sp-muMax20 (muMax20 with two 2,6-bis(methyl)pyridine Cys staples)', 'False'),
  ('CCCGTGAG', '2Sp-muMax20 (muMax20 with two 2,6-bis(methyl)pyridine Cys staples)', 'False'),
  ('GTTGAAGA', '2Sp-muMax20 (muMax20 with two 2,6-bis(methyl)pyridine Cys staples)', 'True'),
  ('AGGGTATG', '2Sp-muMax20 (muMax20 with two 2,6-bis(methyl)pyridine Cys staples)', 'True'),
  ('ACACCCCA', '2Sp-muMax20 (muMax20 with two 2,6-bis(methyl)pyridine Cys staples)', 'True'),
  ('CAAAATTA', '2Sp-muMax20 (muMax20 with two 2,6-bis(methyl)pyridine Cys staples)', 'True'),
  ('ATGACTTA', '2Sp-muMax20 (muMax20 with two 2,6-bis(methyl)pyridine Cys staples)', 'True'),
  ('TGTTTAAA', '2Sp-muMax20 (muMax20 with two 2,6-bis(methyl)pyridine Cys staples)', 'True'),
  ('TGTTTTAA', '2Sp-muMax20 (muMax20 with two 2,6-bis(methyl)pyridine Cys staples)', 'True'),
  ('AGGAGGGA', '2Sp-muMax20 (muMax20 with two 2,6-bis(methyl)pyridine Cys staples)', 'False'),
  ('GTCTCTCA', '2Sp-muMax20 (muMax20 with two 2,6-bis(methyl)pyridine Cys staples)', 'False'),
  ('CATGCGTA', '2Sp-muMax20 (muMax20 with two 2,6-bis(methyl)pyridine Cys staples)', 'True'),
  ('TATCCATA', '2Sp-muMax20 (muMax20 with two 2,6-bis(methyl)pyridine Cys staples)', 'True'),
  ('AATGCTGA', '2Sp-muMax20 (muMax20 with two 2,6-bis(methyl)pyridine Cys staples)', 'True'),
  ('CCACCCCC', '2Sp-muMax20 (muMax20 with two 2,6-bis(methyl)pyridine Cys staples)', 'False'),
  ('GTGGTCGA', '2Sp-muMax20 (muMax20 with two 2,6-bis(methyl)pyridine Cys staples)', 'True'),
  ('ACTATATC', '2Sp-muMax20 (muMax20 with two 2,6-bis(methyl)pyridine Cys staples)', 'True'),
  ('AGTATATG', '2Sp-muMax20 (muMax20 with two 2,6-bis(methyl)pyridine Cys staples)', 'True'),
  ('AAGTTCTA', '2Sp-muMax20 (muMax20 with two 2,6-bis(methyl)pyridine Cys staples)', 'False'),
  ('AATCCCAC', '2Sp-muMax20 (muMax20 with two 2,6-bis(methyl)pyridine Cys staples)', 'False'),
  ('ATGGTATA', '2Sp-muMax20 (muMax20 with two 2,6-bis(methyl)pyridine Cys staples)', 'True'),
  ('CATGCTTC', '2Sp-muMax20 (muMax20 with two 2,6-bis(methyl)pyridine Cys staples)', 'True'),
  ('CAAATGAC', '2Sp-muMax20 (muMax20 with two 2,6-bis(methyl)pyridine Cys staples)', 'False'),
  ('TCACCCCA', '2Sp-muMax20 (muMax20 with two 2,6-bis(methyl)pyridine Cys staples)', 'True'),
  ('AATGCTTC', '2Sp-muMax20 (muMax20 with two 2,6-bis(methyl)pyridine Cys staples)', 'True'),
  ('CCACCCCA', '2Sp-muMax20 (muMax20 with two 2,6-bis(methyl)pyridine Cys staples)', 'True'),
  ('GTGATGTA', '2Sp-muMax20 (muMax20 with two 2,6-bis(methyl)pyridine Cys staples)', 'True'),
  ('GACGTGAC', '2Sp-muMax20 (muMax20 with two 2,6-bis(methyl)pyridine Cys staples)', 'False'),
  ('TGATATAA', '2Sp-muMax20 (muMax20 with two 2,6-bis(methyl)pyridine Cys staples)', 'True');
